Origin of measurements: ChEMBL document CHEMBL3507680

TEST METHOD NOTES: Human HepG2 cell viability assay in 384 well format
Type: toxicity, cell-based
Set-up: dose 125 nL, time 70.5 hour; concentration not given beside the values
CONDITION SUMMARY: HepG2 cells, read-out: Inhibition
MEASURED PROPERTY: cytotoxicity at 70.5 h

>>> df
                                   molecule  result_value
0  Cn1ncc2c(NCCOc3ccc(F)cc3)nc(C3CCCC3)nc21        0.952%
1              CC(C)=CCN1CCN(C(=O)C2CC2)CC1         2.37%
2     O=C(CNc1ccccc1Cl)Nc1cc(-n2cnnn2)ccc1F         -117%
3  CCN(CC(=O)Nc1c(C)nn(C)c1C)CC(O)c1ccc(C)cc1 (stereo unspecified)        -5.69%
4  Cc1ccc(S(=O)(=O)N2CC(C)Oc3ncccc32)c(C)c1 (stereo unspecified)        -4.94%
5  COCCN1CC(C(=O)N(C)Cc2csc(C)n2)CC1=O (stereo unspecified)         9.18%

----------
TEST METHOD NOTES: Human HepG2 cell viability assay in 384 well format
Type: toxicity, cell-based
Design: dose 125 nL, time 70.5 hour; concentration not given beside the values
CONDITION SUMMARY: HepG2 cells, read-out: Inhibition
MEASURED PROPERTY: cytotoxicity at 70.5 h (%)

In [3]: df
Out[3]:
                                    compound       measured_property  result_value
 0   CC(C)c1nccc(N2CCN(CC(=O)N3CCOCC3)CC2)n1  cytotoxicity at 70.5 h         -10.5
 1  COc1ccc(C(=O)N2C[C@@H](C(=O)O)[C@H](c3ccccc3)C2)c(O)c1  cytotoxicity at 70.5 h         -8.78
 2  Cc1ccc(O)c(C(=O)N2CCOCC2c2c(C)n[nH]c2C)c1 (stereo unspecified)  cytotoxicity at 70.5 h         -1.53
 3     CCCNc1ncc(CN2CCC3(CCNC(=O)CC3)CC2)cn1  cytotoxicity at 70.5 h         -3.92
 4   CNS(=O)(=O)c1csc(C(=O)N(C)Cc2ccccc2C)c1  cytotoxicity at 70.5 h        0.0278
 5  O=S(=O)(N1CCOCC1)N1CCCC1Cn1cccn1 (stereo unspecified)  cytotoxicity at 70.5 h         -11.1
 6  Cc1cnc2c(S(=O)(=O)N(C)C3CCS(=O)(=O)C3)cccc2c1 (stereo unspecified)  cytotoxicity at 70.5 h         -16.4
 7  O=C(N[C@@H]1CN(Cc2cccs2)[C@@H]2CCCO[C@@H]21)C1CC1  cytotoxicity at 70.5 h         -10.5
 8  CO[C@@H]1CCN(S(=O)(=O)c2cccs2)[C@H]1Cc1ccccc1  cytotoxicity at 70.5 h        -0.149
 9            CC(C)OCCN1CCC(N2CCN(C)C2=O)CC1  cytotoxicity at 70.5 h         -2.99
10   COCCN(Cc1nccs1)C(=O)c1c(C)cc(C)[nH]c1=O  cytotoxicity at 70.5 h          12.2

----------
Entries and their cytotoxicity at 70.5 h
TEST METHOD NOTES: Human HepG2 cell viability assay in 384 well format
Type: toxicity, cell-based
Design: dose 125 nL, time 70.5 hour; concentration not given beside the values
CONDITION SUMMARY: HepG2 cells, read-out: Inhibition
MEASURED PROPERTY: cytotoxicity at 70.5 h

In [3]: df
Out[3]:
                                   compound  result_value
0      CNC(=O)c1cnc(/C=C/c2ccc(OC)c(O)c2)s1        -6.12%
1  O=c1ccc2c([nH]1)CCN(S(=O)(=O)c1ccc3c(c1)CCCC3)C2         3.55%
2  O=C1CC(c2ccccc2)c2c(n3ccsc3nc2=O)N1 (stereo unspecified)          -20%
3           CCOc1ncnc2c1CCN(C(=O)CN(C)C)CC2        0.621%
4               CN1CCN(Cc2cccnc2)Cc2cccnc21        -7.13%
5    CSc1nnc(C2CCN(C(=O)N3CCCC3)CC2)n1C(C)C         2.59%
